# experiment summary: NCI Yeast Anticancer Drug Screen. Data for the mlh1 rad18 strain (AID 175)
# conditions: S. cerevisiae mlh1 rad18 strain growth inhibition; at 50.0 µM
The panel holds about 79,000 compounds, 15% with a hit somewhere; the sample as a whole holds those more often. Activity calls are given as the source filed them. Cut-off read from the data, not from the text of the source: active = growth inhibition above about 70%; inactive = the rest.
Respond using exactly one of the listed classes: active, inactive

Previously resolved entries follow.
Prompt line: Any idea what this test logged for `Cc1cc(C(O)(C(F)(F)F)C(F)(F)F)c(I)c(C(O)(C(F)(F)F)C(F)(F)F)c1` ?
Response line: active

Prompt line: Any idea what this test logged for `O=NNc1ccc2cc3ccc(NN=O)cc3nc2c1` ?
Response line: inactive

Prompt line: Any idea what this test logged for OC1CC2CCC(C1)N2CCCN1c2ccccc2Sc2ccc(Cl)cc21 (stereo not drawn) ?
Response line: active

Prompt line: Any idea what this test logged for `O=C1c2ccccc2C(=O)c2c1cc(O)c(O)c2O` ?
Response line: active

Next:
Prompt line: Any idea what this test logged for `CC(C)(C)c1cc(Nc2ccc([N+](=O)[O-])cc2[N+](=O)[O-])cc(C(C)(C)C)c1O` ?
Response line: inactive

Prompt line: Any idea what this test logged for CCCCc1c2c(nc3c1CCC/C3=C\c1ccccc1)C(=O)C(CN(C)C)CC2 (stereo not drawn) ?
Response line: active

Prompt line: Any idea what this test logged for `CSc1cccc(N2C(=O)C=CC2=O)c1` ?
Response line: active

Prompt line: Any idea what this test logged for `Nc1cc2[nH]c(=O)c3cc(Cl)ccc3c2cc1Cl` ?
Response line: inactive

Prompt line: Any idea what this test logged for `CCCCCCCCCCCC#CCCCCC(=O)O` ?
Response line: inactive

Prompt line: Any idea what this test logged for `CN(C)Cc1ccc(C(C)(C)C)cc1-c1cc(C(C)(C)C)ccc1CN(C)C` ?
Response line: inactive

###

# experiment summary: NCI Yeast Anticancer Drug Screen. Data for the sgs1 mgt1 strain (AID 161);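 note: 0% = growth of cultures given vehicle only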
# conditions: S. cerevisiae sgs1 mgt1 strain, at 50.0 µM, stronger effect = higher value
This is part of a sample that, as a whole, favours compounds with a hit. Of some 79,000 tested, about 15% had one in any assay.
attribute measured: growth inhibition (%)
Response body: numeric value in %, unit text excluded.

Worked examples follow.
Record CN1C/C(=C\c2ccccc2)C(=O)C(c2ccccc2)C1 (stereo not given) . Reported growth inhibition: 28.8

Record CC(C)CCCC(C)C1CCC2C3C=CC4=CCCCC4(C)C3CCC12C (stereo not given) . Reported growth inhibition: 8.35

Record `F[Si](c1ccccc1)(c1ccccc1)c1ccccc1` . Reported growth inhibition: 32.1

Record `COC(=O)CS(=O)(=O)CCS(=O)(=O)CC(=O)OC` . Reported growth inhibition: 4.65

Record Cc1cccc2c1Oc1cc(Cl)ccc1C2NC(=O)CCN1CCN(CCO)CC1 (stereo not given) . Reported growth inhibition: 38.1

Next:
Record `CN(C)CCN(C)N=Nc1c(-c2cccs2)n[nH]c1C(F)(F)F` . Reported growth inhibition: 99.6

Record `CN(C)C(=S)/N=c1\ss/c(=N\S(=O)(=O)c2ccccc2)n1-c1ccccc1` . Reported growth inhibition: 64.9

Record CC(=O)NC(C)(C)C1CCC(C)=C(c2ccccc2)C1 (stereo not given) . Reported growth inhibition: 67.2

Record `COc1cc2c(c(-c3cn(C)c4ccccc34)c1OC)OCO2` . Reported growth inhibition: 86

Record `O=C(NCC#CCO)C(F)(F)F` . Reported growth inhibition: 11.7

Record `Cn1cccc1C(/C=C/c1ccccc1[N+](=O)[O-])c1cccn1C` . Reported growth inhibition: 20.9

Record `CCN(CC)CCSCCCNc1cc(OC)cc2cccnc12` . Reported growth inhibition: 71

Record `CC1=NC(=Cc2cccc(Cl)c2)C(=O)N1n1c(-c2ccccc2)nc2ccccc2c1=O` . Reported growth inhibition: 79.4

Record `CCOc1ccc(/C=C2\NC(=S)N(/C=C3\C(=O)Oc4ccccc4C3=O)C2=O)cc1` . Reported growth inhibition: 0.45

Record `NC(=S)Nc1ccccc1O` . Reported growth inhibition: 40.9

Record `COc1cccc(=O)cc1` . Reported growth inhibition: 93.5

Record `CCOC(=O)C(Cc1cn(S(=O)(=O)c2ccccc2)c2ccccc12)(NC(C)=O)C(=O)OCC` . Reported growth inhibition: 70

Record `COc1cccc(/C=C2\CCCc3ccccc3C2=O)c1` . Reported growth inhibition: 80.3

Record `CN(C)CCN(C)N=Nc1c(-c2ccc(Cl)cc2)n[nH]c1C(F)(F)F` . Reported growth inhibition: 99.4

Record `O=C1CN(/N=C\c2ccc([N+](=O)[O-])o2)C(=O)N1` . Reported growth inhibition: 41

Record `CCC(=O)NC1=C(Cl)C(=O)c2ccccc2C1=O` . Reported growth inhibition: 98.2

Source: PubChem BioAssay (NCI)
